conditions: in n-propyl acetate, 298.15 K
measured-endpoint: solubility (mole fraction)
Reply with just the number.

Lab note: Oc1ccc(Cl)c2cccnc12 gave solubility (mole fraction) of 0.0297

====

details: in 2-ethoxyethanol, 303.15 K
measured-endpoint: solubility (mole fraction)
Reply with just the number.

Lab note: Oc1ccc(Cl)c2cccnc12 gave solubility (mole fraction) of 0.0398

====

conditions: in ethanol, 318.15 K
measured-endpoint: solubility (mole fraction)
Reply with just the number.

Lab note: Oc1ccc(Cl)c2cccnc12 gave solubility (mole fraction) of 0.0121

====

conditions: in 2-ethoxyethanol, 308.15 K
measured-endpoint: solubility (mole fraction)
Reply with just the number.

Lab note: Oc1ccc(Cl)c2cccnc12 gave solubility (mole fraction) of 0.0466

====

conditions: in ethanol, 283.15 K
measured-endpoint: solubility (mole fraction)

Lab note: Oc1ccc(Cl)c2cccnc12 gave solubility (mole fraction) of 0.00304

====

settings: in 2-ethoxyethanol, 278.15 K
measured-endpoint: solubility (mole fraction)

Lab note: Oc1ccc(Cl)c2cccnc12 gave solubility (mole fraction) of 0.0161
